Consider the following molecules; for each one, report its Ki.
# Target desc: UniProt:P50391
# Sequence (P50391 whole entry): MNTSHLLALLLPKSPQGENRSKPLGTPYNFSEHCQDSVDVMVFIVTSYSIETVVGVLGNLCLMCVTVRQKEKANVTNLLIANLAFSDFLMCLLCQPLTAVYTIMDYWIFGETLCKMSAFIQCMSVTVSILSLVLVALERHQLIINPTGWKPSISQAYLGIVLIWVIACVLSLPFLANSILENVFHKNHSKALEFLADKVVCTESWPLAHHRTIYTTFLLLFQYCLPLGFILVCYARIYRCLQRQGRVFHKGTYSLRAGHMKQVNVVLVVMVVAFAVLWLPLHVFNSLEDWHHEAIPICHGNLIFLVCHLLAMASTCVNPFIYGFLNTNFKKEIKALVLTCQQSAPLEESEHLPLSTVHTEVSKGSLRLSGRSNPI
# Assay comment: Affinity for cloned Y4 receptor using [125I]PP as radioligand
Note: unit µM is implicit; provide only the numeric part.

## Input What measured Ki is associated with CC[C@H](C)[C@H](N)C(=O)N[C@@H](CC(N)=O)C(=O)N1CCC[C@H]1C(=O)N[C@@H](CSSC[C@H](NC(=O)[C@@H]1CCCN1C(=O)[C@H](CC(N)=O)NC(=O)[C@@H](N)[C@@H](C)CC)C(=O)N[C@@H](Cc1ccc(O)cc1)C(=O)N[C@@H](CCCN=C(N)N)C(=O)N[C@@H](CC(C)C)C(=O)N[C@@H](CCCN=C(N)N)C(=O)N[C@@H](Cc1ccc(O)cc1)C(=O)OC)C(=O)N[C@@H](Cc1ccc(O)cc1)C(=O)N[C@@H](CCCN=C(N)N)C(=O)N[C@@H](CC(C)C)C(=O)N[C@@H](CCCN=C(N)N)C(=O)N[C@@H](Cc1ccc(O)cc1)C(=O)OC on UniProt:P50391?
## Output 0.099

## Input Please answer likewise for CC[C@H](C)[C@H](N)C(=O)N[C@@H](CC(N)=O)C(=O)N1CCC[C@H]1C(=O)N[C@@H](CSSC[C@H](NC(=O)[C@@H]1CCCN1C(=O)[C@H](CC(N)=O)NC(=O)[C@@H](N)[C@@H](C)CC)C(=O)N[C@@H](Cc1ccc(O)cc1)C(=O)N[C@@H](CCCNC(=N)N)C(=O)N[C@@H](CC(C)C)C(=O)N[C@@H](CCCNC(=N)N)CN[C@@H](Cc1ccc(O)cc1)C(N)=O)C(=O)N[C@@H](Cc1ccc(O)cc1)C(=O)N[C@@H](CCCNC(=N)N)C(=O)N[C@@H](CC(C)C)C(=O)N[C@@H](CCCNC(=N)N)CN[C@@H](Cc1ccc(O)cc1)C(N)=O
## Output 0.065

## Input Please answer likewise for CC[C@H](C)[C@H](N)C(=O)N[C@H]1CCC(=O)NC[C@@H](C(=O)N[C@@H](Cc2ccc(O)cc2)C(=O)N[C@@H](CCCNC(=N)N)C(=O)N[C@@H](CC(C)C)C(=O)N[C@@H](CCCNC(=N)N)CN[C@@H](Cc2ccc(O)cc2)C(N)=O)NC(=O)[C@@H]2CCCN2C(=O)[C@@H](NC(=O)[C@@H](N)[C@@H](C)CC)CCC(=O)NC[C@@H](C(=O)N[C@@H](Cc2ccc(O)cc2)C(=O)N[C@@H](CCCNC(=N)N)C(=O)N[C@@H](CC(C)C)C(=O)N[C@@H](CCCNC(=N)N)CN[C@@H](Cc2ccc(O)cc2)C(N)=O)NC(=O)[C@@H]2CCCN2C1=O
## Output 0.0655

## Input Please answer likewise for CC[C@H](C)[C@H](N)C(=O)N[C@H]1CCC(=O)NC[C@@H](C(=O)N[C@@H](Cc2ccc(O)cc2)C(=O)N[C@@H](CCCN=C(N)N)C(=O)N[C@@H](CC(C)C)C(=O)N[C@@H](CCCN=C(N)N)C(=O)N[C@@H](Cc2ccc(O)cc2)C(=O)OC)NC(=O)[C@@H]2CCCN2C(=O)[C@@H](NC(=O)[C@@H](N)[C@@H](C)CC)CCC(=O)NC[C@@H](C(=O)N[C@@H](Cc2ccc(O)cc2)C(=O)N[C@@H](CCCN=C(N)N)C(=O)N[C@@H](CC(C)C)C(=O)N[C@@H](CCCN=C(N)N)C(=O)N[C@@H](Cc2ccc(O)cc2)C(=O)OC)NC(=O)[C@@H]2CCCN2C1=O
## Output 0.0334
